The following binders are shown together with reported SK-Br-3 pHER3 IC50 values.
target: human HER3 endogenously expressed on human cancer cells (SK-Br-3, BT-474, MCF7) (human, UniProt P21860 20-1342); assay: cell-based or functional assay
Write down the numeric answer in pM and omit the unit.

Binder | SK-Br-3 pHER3 IC50 [pM]
MOR13666 (antibody, human IgG1, lambda, V domains shown, Tested as IgG) VH: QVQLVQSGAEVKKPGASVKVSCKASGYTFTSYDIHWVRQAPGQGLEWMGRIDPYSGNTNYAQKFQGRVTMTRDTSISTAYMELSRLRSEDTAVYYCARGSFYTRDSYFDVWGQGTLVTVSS VL: DIALTQPASVSGSPGQSITISCTGTSSDVGTYNQVSWYQQHPGKAPKLMIYGVSKRPSGVSNRFSGSKSGNTASLTISGLQAEDEADYYCSTTTYSFHMVFGGGTKLTVLG | 166

Next:
[in] Answer with reported SK-Br-3 pHER3 IC50 of MOR13664 (antibody, human IgG1, lambda, V domains shown) VH: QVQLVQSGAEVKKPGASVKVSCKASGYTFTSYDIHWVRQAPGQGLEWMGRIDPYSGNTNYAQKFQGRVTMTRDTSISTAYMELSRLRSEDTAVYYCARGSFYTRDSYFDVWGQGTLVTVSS VL: DIALTQPASVSGSPGQSITISCTGTSSDVGTYNQVSWYQQHPGKAPKLMIYGVSKRPSGVSNRFSGSKSGNTASLTISGLQAEDEADYYCSAYDASTQVVFGGGTKLTVLG
[out] 388
